Molecular target: Delta-type opioid receptor (Homo sapiens, UniProt P41143)
Sequence (P41143 whole entry): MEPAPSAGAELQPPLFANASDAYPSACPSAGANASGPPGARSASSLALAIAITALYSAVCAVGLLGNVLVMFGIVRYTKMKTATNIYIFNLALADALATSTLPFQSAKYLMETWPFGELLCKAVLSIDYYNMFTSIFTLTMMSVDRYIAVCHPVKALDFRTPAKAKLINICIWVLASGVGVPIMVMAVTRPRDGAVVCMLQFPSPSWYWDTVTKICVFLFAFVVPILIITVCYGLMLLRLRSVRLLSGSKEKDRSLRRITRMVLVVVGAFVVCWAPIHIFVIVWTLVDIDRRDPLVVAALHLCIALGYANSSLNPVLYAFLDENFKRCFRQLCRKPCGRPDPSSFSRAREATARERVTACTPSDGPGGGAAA
Test: Binding inhibition of [3H]- -naltrindole (0.15 nM) to membranes in CHO cells expressing Opioid receptor delta 1
Type: cell-based
quantityKind: pIC50
pIC50 is defined as minus the log10 of a concentration measured in mol/L.

Recorded results for 2 molecules are shown here.
C=CCN1CCN(C(c2ccccc2)c2ccc(-c3ccccn3)cc2)CC1 (stereo not drawn)
6.60
C=CCN1CCN(C(c2ccccc2)c2ccc(C(=O)NCC)cc2)CC1 (stereo not drawn)
6.44

Check Delta-type opioid receptor (Homo sapiens, UniProt P41143) data and give pIC50 for C=CCN1CCN(C(c2ccccc2)c2ccc(-c3cccnc3)cc2)CC1 (stereo not drawn) .
6.30
